system: P388 leukemia ip, CD2F1 mice, survival T/C; experiment: NCI In Vivo Anticancer Drug Screen. Data for tumor model P388 Leukemia (intraperitoneal) in CD2F1 (CDF1) mice; details: endpoint: median survival time; dose: 200.0 mg/kg/injection; schedule: Q01DX009 (ip); vehicle: saline with Tween-80; higher = longer survival
Inconclusive results and toxic doses are left out.
Listing of recorded T/C by entry.

Known T/C results, listed for orientation:
{"molecule": "C=CC#N", "T/C": "90 % of control"}
{"molecule": "Cc1ccc([N+](=O)[O-])cc1NC(=O)Oc1cc(C)c(Br)c(C)c1", "T/C": "112 % of control"}
{"molecule": "CC(C)(C)C1=NC(c2ccccc2)N2C(c3ccccc3)NC(c3ccccc3)C1C2c1ccccc1 (stereo not given)", "T/C": "91 % of control"}
{"molecule": "CC(C)(C)C(=O)CC(Cc1nccc2ccccc12)c1ccco1 (stereo not given)", "T/C": "97 % of control"}
{"molecule": "Cc1cccc2c1CC(C(C)C)C2 (stereo not given)", "T/C": "90 % of control"}

Problem: Record request: T/C value, item "OC1(c2ccccc2)c2ccc(Br)cc2-c2cc(Br)ccc21"
Solution: 104 % of control

Problem: Record request: T/C value, item "COc1ccc(OC)c2c(=O)cc(C)[nH]c12"
Solution: 107 % of control

Problem: Record request: T/C value, item OC(Nc1ncccn1)C(Cl)(Cl)Cl (stereo not given)
Solution: 100 % of control

====

tested on: P388 leukemia ip, CD2F1 mice, survival T/C; assay: NCI In Vivo Anticancer Drug Screen. Data for tumor model P388 Leukemia (intraperitoneal) in CD2F1 (CDF1) mice; conditions: endpoint: median survival time; dose: 200.0 mg/kg/injection; schedule: Q01DX005 (ip); vehicle: Klucel (hydroxypropylcellulose) (HPC); higher = longer survival
Inconclusive results and toxic doses are left out.
measured-attribute: T/C

Known T/C results, listed for orientation:
{"compound": "O=C(Nc1ccccc1)C1(c2ccccc2)CCCCC1", "tested-target": "P388 leukemia ip, CD2F1 mice, survival T/C", "T/C": "93 % of control"}
{"compound": "Cn1c(Br)c(Br)c(=O)n(C)c1=O", "tested-target": "P388 leukemia ip, CD2F1 mice, survival T/C", "T/C": "100 % of control"}
{"compound": "COc1c(/C=C/C=O)cc2c(c1OC)OCO2", "tested-target": "P388 leukemia ip, CD2F1 mice, survival T/C", "T/C": "100 % of control"}
{"compound": "CCC(C)C(NC(=O)OC(C)(C)C)C(=O)O (centres undefined)", "tested-target": "P388 leukemia ip, CD2F1 mice, survival T/C", "T/C": "100 % of control"}
{"compound": "CCN(CC)c1ccc(CCc2ccc(N(CC)CC)c3cccnc23)c2ncccc12", "tested-target": "P388 leukemia ip, CD2F1 mice, survival T/C", "T/C": "94 % of control"}
{"compound": "C[Si]1(C)O[Si](C)(C)O[Si](C)(C)O[Si](C)(C)O1", "tested-target": "P388 leukemia ip, CD2F1 mice, survival T/C", "T/C": "97 % of control"}

Problem: Record request: T/C value, item "c1ccc2c(c1)Oc1cccc3cccc-2c13"
Solution: 101 % of control

Problem: Record request: T/C value, item "Cc1nnsc1C(=O)NCc1c(F)cccc1Cl"
Solution: 98 % of control

Problem: Record request: T/C value, item "COC(=O)c1nn(-c2ccccc2)c2c1C(=O)c1ccccc1C2=O"
Solution: 98 % of control

Problem: Record request: T/C value, item "CC(C)c1nc2c(c(=O)o1)CCS2"
Solution: 98 % of control

Problem: Record request: T/C value, item "CN(C)NCCCCCNN(C)C"
Solution: 102 % of control

Problem: Record request: T/C value, item O=C(/C=C/c1ccccc1)OCC12OC1C(O)C1C=COC(OC3OC(CO)C(O)C(O)C3O)C12 (centres undefined)
Solution: 103 % of control

Problem: Record request: T/C value, item "O=C(c1ccccc1)[C@@]12COc3ccccc3[C@@H]1ON=C2c1ccccc1"
Solution: 91 % of control

Problem: Record request: T/C value, item "O=C(O)c1c2ccccc2nc2[nH]c(=O)[nH]c(=O)c12"
Solution: 114 % of control

====

system: P388 leukemia ip, CD2F1 mice, survival T/C; experiment: NCI In Vivo Anticancer Drug Screen. Data for tumor model P388 Leukemia (intraperitoneal) in CD2F1 (CDF1) mice; settings: endpoint: median survival time; dose: 50.0 mg/kg/injection; schedule: Q01DX005 (ip); vehicle: saline with Tween-80; higher = longer survival
Toxic doses and inconclusive results are not listed.
Listing of recorded T/C by entry.

Known T/C results, listed for orientation:
{"compound": "CC(C)C(NC(=O)c1ccccc1)C(=O)O (stereo not drawn)", "result": "98 % of control"}
{"compound": "O=c1c2ccccc2ncn1Cc1ccco1", "result": "98 % of control"}
{"compound": "C=C(C)C(=O)Nc1ccc(-n2[nH]c(C)c(N=Nc3ccc(N(C)C)cc3)c2=O)cc1", "result": "98 % of control"}
{"compound": "Cc1ccc(S(=O)(=O)CC(O)(C(C)C)C(C)C)cc1", "result": "103 % of control"}
{"compound": "CCOC(=O)C(N=Nc1ccc(Br)cc1C)C(C)=O (stereo not drawn)", "result": "99 % of control"}
{"compound": "CCOC(=O)N1CCc2cc3c(cc2C1Cc1ccc(OC)c(OC)c1CCl)OCO3 (stereo not drawn)", "result": "100 % of control"}
{"compound": "CCOC(=O)C1C(COCc2ccccc2)C2CCC1(OC)C=C2C (stereo not drawn)", "result": "99 % of control"}
{"compound": "CC(=O)OC1CC2C(=S)Nc3cc4c(cc3C(=O)N2C1)OCO4 (stereo not drawn)", "result": "92 % of control"}
{"compound": "O=C1N(Cc2ccccc2)[C@H]2CS(=O)(=O)C[C@@H]2N1Cc1ccccc1", "result": "87 % of control"}
{"compound": "CCCCn1c2c(c3ccccc3c1=O)C(=O)c1ccccc1-2", "result": "92 % of control"}

Problem: Record request: T/C value, item CN(C)CC1C2CCC(C2)C1O (stereo not drawn)
Solution: 98 % of control

Problem: Record request: T/C value, item CCOC(=O)CC1CC(=O)C(C(=O)OCC)C=C1C(=O)OCC (stereo not drawn)
Solution: 94 % of control

Problem: Record request: T/C value, item "CCOC(=O)C1=NCCS1"
Solution: 98 % of control

====

system: P388 leukemia ip, CD2F1 mice, survival T/C; test: NCI In Vivo Anticancer Drug Screen. Data for tumor model P388 Leukemia (intraperitoneal) in CD2F1 (CDF1) mice; settings: endpoint: median survival time; dose: 25.0 mg/kg/injection; schedule: Q01DX005 (ip); vehicle: Klucel (hydroxypropylcellulose) (HPC); higher = longer survival
Inconclusive results and toxic doses are left out.
measured-attribute: T/C

{"molecule": "C[C@]12C[C@@H](O)[C@H]3[C@@H](CCC4=C(O)C(=O)CC[C@@]43C)[C@@H]1CC[C@@H]2O", "tested-target": "P388 leukemia ip, CD2F1 mice, survival T/C", "T/C": "105 % of control"}

Problem: Record request: T/C value, item "CCN(CC)CCN1C(=O)c2cccc3cc([N+](=O)[O-])cc(c23)C1=O"
Solution: 124 % of control

Problem: Record request: T/C value, item "O=C1C=CC(=Nc2cccc3c(N=C4C=CC(=O)O4)cccc23)O1"
Solution: 107 % of control

Problem: Record request: T/C value, item "CC(C)N1COCO[C@H]2CCC[C@@H]21"
Solution: 113 % of control

Problem: Record request: T/C value, item O=C1C=C(NCCCC2CCCN3CCCCC23)C(=O)c2ccccc21 (stereo not given)
Solution: 98 % of control

====

test system: P388 leukemia ip, CD2F1 mice, survival T/C; assay: NCI In Vivo Anticancer Drug Screen. Data for tumor model P388 Leukemia (intraperitoneal) in CD2F1 (CDF1) mice; conditions: endpoint: median survival time; dose: 200.0 mg/kg/injection; schedule: Q01DX005 (ip); vehicle: saline; higher = longer survival
Inconclusive results and toxic doses are left out.
measured-attribute: T/C

{"compound": "CC1=N[C@@H](N2CCOCC2)[C@H](N2CCOCC2)N1c1ccccc1", "tested-target": "P388 leukemia ip, CD2F1 mice, survival T/C", "result": "102 % of control"}
{"compound": "CCOC(=O)CON1C(=O)CCC1=O", "tested-target": "P388 leukemia ip, CD2F1 mice, survival T/C", "result": "105 % of control"}
{"compound": "NC(=S)N/N=C/c1ncccc1O", "tested-target": "P388 leukemia ip, CD2F1 mice, survival T/C", "result": "157 % of control"}
{"compound": "CCCC(=O)NC", "tested-target": "P388 leukemia ip, CD2F1 mice, survival T/C", "result": "104 % of control"}
{"compound": "NC(CSCCCS(=O)(=O)O)C(=O)O (configuration not stated)", "tested-target": "P388 leukemia ip, CD2F1 mice, survival T/C", "result": "100 % of control"}

Problem: Record request: T/C value, item "N#Cc1cn(N(CCO)CCO)c(=O)[nH]c1=O"
Solution: 103 % of control

Problem: Record request: T/C value, item "C[n+]1cccc(C(=O)O)c1"
Solution: 91 % of control

Values compiled from PubChem BioAssay AID330.
